Consider the following compounds; for each one, report its TGI.
tested on: HOP-92 NSCLC; experiment: NCI tumour cell line growth inhibition, 48 h
Numbers only, in µM.

Recorded results for 3 compounds are shown here.
> print(dat)
                                   compound  measurement
1     Oc1ccc(Cl)cc1CN1CCN(Cc2cc(Cl)ccc2O)C1         5.15
2  Cc1nc(N2CCC3(CC2)CO[C@@H](C)[C@H]3N)c(CO)nc1Sc1ccnc(N)c1Cl         2.12
3  COc1cccc(C2c3cc4c(cc3OC(N3CCCC3)C2C)OCO4)c1O (stereo not given)         41.5

Shift focus to the following entry.
I am curious: what TGI value has been reported for O=C1/C(=C\c2ccccn2)c2ccccc2N1c1c(Cl)cccc1Cl ?
6.28
